Reference source for all entries: ChEMBL document CHEMBL3797046

- testName: Antioxidant activity assessed as hydroxyl radical scavenging activity at 2.5 uM by ESR spin trapping assay
- Format: physicochemical
What Activity was measured for each of the following?
Answers are plain numbers, in %.

compound | unitSpec | numericResult
CC[C@H](CC[C@@H](C)[C@H]1CC[C@H]2[C@@H]3CC[C@H]4C[C@@H](OC(=O)/C=C/c5ccc(O)c(OC)c5)CC[C@]4(C)[C@H]3CC[C@]12C)C(C)C | % | 25

Quick request: Activity for each listed item, please.
1. CCOC(=O)/C=C/c1ccc(O)c(OC)c1 [ETHYL FERULATE]
2. COc1cc(/C=C/C(=O)O[C@H]2CC[C@@]3(C)C(=CC[C@H]4[C@@H]5CC[C@H]([C@H](C)CC[C@@H](C)C(C)C)[C@@]5(C)CC[C@@H]43)C2)ccc1O

1: 29; 2: 25
